# Measurement Target: Histone-lysine N-methyltransferase EZH2 (Homo sapiens)
# Sequence (Q15910 whole entry): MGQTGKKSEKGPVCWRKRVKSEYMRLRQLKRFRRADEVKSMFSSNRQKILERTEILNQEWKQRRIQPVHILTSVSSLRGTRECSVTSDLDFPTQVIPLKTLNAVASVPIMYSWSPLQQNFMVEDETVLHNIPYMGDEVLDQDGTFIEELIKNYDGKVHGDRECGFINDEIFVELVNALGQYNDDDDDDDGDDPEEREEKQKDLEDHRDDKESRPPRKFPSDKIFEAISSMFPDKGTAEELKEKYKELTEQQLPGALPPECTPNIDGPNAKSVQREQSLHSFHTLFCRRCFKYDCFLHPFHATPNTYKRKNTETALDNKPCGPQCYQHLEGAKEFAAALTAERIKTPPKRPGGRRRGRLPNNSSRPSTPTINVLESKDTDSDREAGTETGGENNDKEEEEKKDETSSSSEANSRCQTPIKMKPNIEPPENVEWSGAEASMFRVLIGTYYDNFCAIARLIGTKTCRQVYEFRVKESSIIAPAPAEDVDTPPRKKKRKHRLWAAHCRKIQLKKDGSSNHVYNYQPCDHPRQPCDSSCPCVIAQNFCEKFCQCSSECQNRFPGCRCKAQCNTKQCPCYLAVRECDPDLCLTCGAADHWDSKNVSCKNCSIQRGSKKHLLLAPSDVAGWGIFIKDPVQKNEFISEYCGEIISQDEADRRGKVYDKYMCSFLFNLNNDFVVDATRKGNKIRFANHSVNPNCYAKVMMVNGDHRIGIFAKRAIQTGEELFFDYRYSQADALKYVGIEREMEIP
# Protocol Details: Inhibition of EZH2-mediated nuclear H3K27 methylation in human HCC1806 cells after 72 hrs by immunofluorescence analysis
IC50 strictly less than 2 µM = Fulfilled. Otherwise Not fulfilled.

INSERT INTO assay_data (smiles, measurement_target, classification) VALUES
  ('CCCc1cc(C)[nH]c(=O)c1CNC(=O)c1cc(-c2ccc(N3CCN(C)CC3)nc2)cc2c1cnn2C(C)C', 'Histone-lysine N-methyltransferase EZH2 (Homo sapiens)', 'Fulfilled'),
  ('CCCc1cc(C)[nH]c(=O)c1CNC(=O)c1cc(-c2ccnc(N3CCN(C)CC3)c2)cc2c1cnn2C(C)C', 'Histone-lysine N-methyltransferase EZH2 (Homo sapiens)', 'Fulfilled'),
  ('Cc1cc(C)c(CNC(=O)c2cc(-c3ccc(N4CCN(C)CC4)nc3)cc3c2cnn3C(C)C)c(=O)[nH]1', 'Histone-lysine N-methyltransferase EZH2 (Homo sapiens)', 'Fulfilled'),
  ('Cc1cc(C)c(CNC(=O)c2cc(C3CC3)cc3c2cnn3C(C)C)c(=O)[nH]1', 'Histone-lysine N-methyltransferase EZH2 (Homo sapiens)', 'Not fulfilled');

----------
pIC50: −log10 of the molar value.
Quick record: pIC50, DNA (cytosine-5)-methyltransferase 3B (Mus musculus, UniProt O88509).
Measurement Kind: pIC50

INSERT INTO measurements (smiles, reading) VALUES
  ('CCCc1cc(C)[nH]c(=O)c1CNC(=O)c1cc(-c2ccc(N3CCN(C)CC3)nc2)cc2c1cnn2C(C)C', '< 4.00'),
  ('CCCc1cc(C)[nH]c(=O)c1CNC(=O)c1cc(-c2ccnc(N3CCN(C)CC3)c2)cc2c1cnn2C(C)C', '< 4.00');

----------
# Measurement Target: DNA (cytosine-5)-methyltransferase 1 (Homo sapiens)
# Sequence (P26358 whole entry): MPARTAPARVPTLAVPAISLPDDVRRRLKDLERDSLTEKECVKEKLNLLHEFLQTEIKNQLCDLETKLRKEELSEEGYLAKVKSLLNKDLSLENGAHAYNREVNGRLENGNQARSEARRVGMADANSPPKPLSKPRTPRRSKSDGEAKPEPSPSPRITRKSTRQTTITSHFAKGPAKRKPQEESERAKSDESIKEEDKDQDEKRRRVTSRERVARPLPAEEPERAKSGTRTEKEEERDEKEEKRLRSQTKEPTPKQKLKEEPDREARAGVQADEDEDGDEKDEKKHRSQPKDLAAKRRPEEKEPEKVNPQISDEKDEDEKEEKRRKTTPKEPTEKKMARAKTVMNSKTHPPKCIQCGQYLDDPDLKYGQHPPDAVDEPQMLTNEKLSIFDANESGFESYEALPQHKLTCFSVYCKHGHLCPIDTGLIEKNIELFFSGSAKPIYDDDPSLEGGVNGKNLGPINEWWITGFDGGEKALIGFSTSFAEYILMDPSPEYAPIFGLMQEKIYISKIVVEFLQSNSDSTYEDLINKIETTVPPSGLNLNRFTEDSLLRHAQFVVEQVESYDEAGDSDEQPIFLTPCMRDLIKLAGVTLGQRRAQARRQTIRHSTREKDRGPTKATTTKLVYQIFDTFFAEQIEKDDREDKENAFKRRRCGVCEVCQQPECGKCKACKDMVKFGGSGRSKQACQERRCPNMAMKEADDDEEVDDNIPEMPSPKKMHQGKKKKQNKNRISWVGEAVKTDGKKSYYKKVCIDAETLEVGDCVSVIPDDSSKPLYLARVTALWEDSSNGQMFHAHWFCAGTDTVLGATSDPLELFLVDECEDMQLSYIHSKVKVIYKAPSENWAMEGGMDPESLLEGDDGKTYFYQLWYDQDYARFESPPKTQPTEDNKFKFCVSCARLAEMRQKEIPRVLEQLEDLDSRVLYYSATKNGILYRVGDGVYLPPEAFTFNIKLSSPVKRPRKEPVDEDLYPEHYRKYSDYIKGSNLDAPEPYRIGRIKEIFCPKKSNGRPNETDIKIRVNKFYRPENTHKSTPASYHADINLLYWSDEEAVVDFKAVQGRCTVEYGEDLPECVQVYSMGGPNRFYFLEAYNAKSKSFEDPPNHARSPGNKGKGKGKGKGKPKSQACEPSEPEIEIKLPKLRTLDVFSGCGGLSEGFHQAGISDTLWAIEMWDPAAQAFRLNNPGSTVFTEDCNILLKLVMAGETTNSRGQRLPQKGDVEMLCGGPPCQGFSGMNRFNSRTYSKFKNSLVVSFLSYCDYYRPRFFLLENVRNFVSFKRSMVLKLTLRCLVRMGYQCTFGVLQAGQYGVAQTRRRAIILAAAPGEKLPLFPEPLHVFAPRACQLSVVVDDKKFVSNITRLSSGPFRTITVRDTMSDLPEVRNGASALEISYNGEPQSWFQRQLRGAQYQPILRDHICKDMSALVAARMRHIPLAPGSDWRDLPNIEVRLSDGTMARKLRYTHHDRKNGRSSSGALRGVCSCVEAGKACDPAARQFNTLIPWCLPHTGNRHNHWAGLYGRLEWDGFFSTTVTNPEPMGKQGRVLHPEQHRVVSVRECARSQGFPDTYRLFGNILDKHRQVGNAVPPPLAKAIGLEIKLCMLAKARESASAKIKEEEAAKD
pIC50: −log10 of the molar value.
Measurement Kind: pIC50

INSERT INTO results (smiles, reading) VALUES
  ('Cc1cc(C)c(CNC(=O)c2cc(-c3ccc(N4CCN(C)CC4)nc3)cc3c2cnn3C(C)C)c(=O)[nH]1', '< 4.00');

----------
# Measurement Target: EZH1/SUZ12/EED/AEBP2/RBBP4 complex
# Protocol Details: Inhibition of PRC2 complex of EZH1, EED, SUZ12, AEBP2 and RbAp48 using histone H3 peptide (21 to 44) as substrate and [3H]SAM after 1 hr by SPA
pIC50: −log10 of the molar value.
# pIC50 per record follows
Measurement Kind: pIC50

INSERT INTO results (smiles, measurement_kind, reading) VALUES
  ('Cc1cc(C)c(CNC(=O)c2cc(-c3ccc(N4CCN(C)CC4)nc3)cc3c2cnn3C(C)C)c(=O)[nH]1', 'pIC50', 5.60),
  ('CCCc1cc(C)[nH]c(=O)c1CNC(=O)c1cc(-c2ccc(N3CCN(C)CC3)nc2)cc2c1cnn2C(C)C', 'pIC50', 7.00),
  ('CCCc1cc(C)[nH]c(=O)c1CNC(=O)c1cc(-c2ccnc(N3CCN(C)CC3)c2)cc2c1cnn2C(C)C', 'pIC50', 6.62);

----------
# Measurement Target: Histone-lysine N-methyltransferase SUV39H1 (Homo sapiens, UniProt O43463)
# Sequence (O43463 whole entry): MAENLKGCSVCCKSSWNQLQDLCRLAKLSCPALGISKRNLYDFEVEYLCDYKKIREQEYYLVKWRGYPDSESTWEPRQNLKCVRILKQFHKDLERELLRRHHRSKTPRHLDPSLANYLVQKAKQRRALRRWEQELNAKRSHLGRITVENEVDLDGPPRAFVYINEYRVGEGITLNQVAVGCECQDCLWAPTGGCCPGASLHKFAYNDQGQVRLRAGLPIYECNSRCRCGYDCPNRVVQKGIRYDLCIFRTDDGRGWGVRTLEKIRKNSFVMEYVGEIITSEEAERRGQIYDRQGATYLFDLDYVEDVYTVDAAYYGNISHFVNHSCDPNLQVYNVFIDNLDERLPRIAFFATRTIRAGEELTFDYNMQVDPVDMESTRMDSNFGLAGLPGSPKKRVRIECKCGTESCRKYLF
Measurement Kind: IC50

INSERT INTO assay_data (smiles, reading) VALUES
  ('CCCc1cc(C)[nH]c(=O)c1CNC(=O)c1cc(-c2ccnc(N3CCN(C)CC3)c2)cc2c1cnn2C(C)C', '> 100 µM');
